The measurements presented in this section are drawn from patent US7271158B2.

Biological target: rumen fluid supernatant amylases
Experiment: Rumen bacterial amylase assay, protocol 1 (Sigma amylase kit 577)
Format: biochemical, rumen bacteria, Hereford×Friesian calves
Conditions: rumen fluid amylase screen using Sigma kit 577
Each entry below carries its reported IC50.
Write the answer as a number in nM, unit excluded.

Some solved entries appear below for comparison.
[[record]]
compound = "CC1OC(OC2C(CO)OC(OC3C(CO)=CC(NC4C(C)OC(OC5C(CO)OC(OC6C(CO)OC(OC7C(CO)OC(OC8C(CO)OC(O)C(O)C8O)C(O)C7O)C(O)C6O)C(O)C5O)C(O)C4O)C(O)C3O)C(O)C2O)C(O)C(O)C1NC1C=C(CO)C(O)C(O)C1O (centres unmarked) [Example 8]"
attribute_measured = "IC50"
result_number = 440

[[record]]
compound = "C[C@H]1O[C@H](O[C@@H]2[C@H](O)[C@@H](O)[C@@H](O[C@@H]3[C@H](O)[C@@H](O)[C@@H](O[C@@H]4[C@H](O)[C@H](O)[C@@H](O[C@H]5O[C@H](CO)[C@H](O)[C@H](O)[C@H]5O)O[C@@H]4CO)O[C@@H]3CO)O[C@H]2CO)[C@@H](O)[C@@H](O)[C@@H]1N[C@@H]1C=C(CO)[C@@H](O)[C@@H](O)[C@@H]1O (stereo in doubt) [Trestatin B]"
attribute_measured = "IC50"
result_number = 2890

[[record]]
compound = "CC1OC(OC2C(CO)OC(OC3C(CO)=CC(NC4C(C)OC(OC5C(CO)OC(OC6C(CO)OC(OC7C(CO)OC(O)C(O)C7O)C(O)C6O)C(O)C5O)C(O)C4O)C(O)C3O)C(O)C2O)C(O)C(O)C1NC1C=C(CO)C(O)C(O)C1O (centres unmarked) [Example V-1532]"
attribute_measured = "IC50"
result_number = 570

[[record]]
compound = "C[C@H]1O[C@H](O[C@@H]2[C@H](O)[C@H](O)[C@@H](O[C@@H]3[C@H](O)[C@@H](O)[C@@H](O[C@@H]4[C@H](O)[C@H](O)[C@@H](O[C@H]5O[C@@H](CO)[C@H](O)[C@H](O)[C@H]5O)O[C@@H]4CO)O[C@@H]3CO)O[C@H]2CO)[C@H](O)[C@@H](O)[C@@H]1N[C@H]1C=C(CO)[C@@H](O[C@H]2O[C@H](CO)[C@H](O[C@H]3O[C@H](C)[C@@H](N[C@H]4C=C(CO)[C@@H](O)[C@H](O)[C@H]4O)[C@H](O)[C@H]3O)[C@H](O)[C@H]2O)[C@H](O)[C@H]1O (stereo in doubt) [Trestatin A]"
attribute_measured = "IC50"
result_number = 170


Below: the item to evaluate.
Requested field: IC50. Item: CC1OC(OC2C(CO)OC(OC3C(CO)OC(O)C(O)C3O)C(O)C2O)C(O)C(O)C1NC1C=C(CO)C(O)C(O)C1O (centres unmarked) [Acarbose, acarbose] 2030

---

Biological target: rumen fluid supernatant amylases
Experiment: Rumen bacterial amylase assay, protocol 2 (amylose azure)
Conditions: read-out: Average IC50, rumen fluid amylase screen
Each entry below carries its reported pIC50.
// returns pIC50 (minus log10 of molar concentration), number only

[[record]]
molecule = "CC1OC(OC2C(CO)OC(OC3C(CO)=CC(NC4C(C)OC(OC5C(CO)OC(OC6C(CO)OC(OC7C(CO)OC(O)C(O)C7O)C(O)C6O)C(O)C5O)C(O)C4O)C(O)C3O)C(O)C2O)C(O)C(O)C1NC1C=C(CO)C(O)C(O)C1O (stereo not shown)"
attribute_measured = "pIC50"
result_number = 5.68

[[record]]
molecule = "CC1OC(OC2C(CO)OC(OC3C(CO)OC(O)C(O)C3O)C(O)C2O)C(O)C(O)C1NC1C=C(CO)C(O)C(O)C1O (stereo not shown)"
attribute_measured = "pIC50"
result_number = 5.62

[[record]]
molecule = "CC1OC(OC2C(CO)OC(OC3C(CO)=CC(NC4C(C)OC(OC5C(CO)OC(OC6C(CO)OC(OC7C(CO)OC(OC8C(CO)OC(O)C(O)C8O)C(O)C7O)C(O)C6O)C(O)C5O)C(O)C4O)C(O)C3O)C(O)C2O)C(O)C(O)C1NC1C=C(CO)C(O)C(O)C1O (stereo not shown)"
attribute_measured = "pIC50"
result_number = 5.02


Requested field: pIC50. Item: C[C@H]1O[C@H](O[C@@H]2[C@H](O)[C@H](O)[C@@H](O[C@@H]3[C@H](O)[C@@H](O)[C@@H](O[C@@H]4[C@H](O)[C@H](O)[C@@H](O[C@H]5O[C@@H](CO)[C@H](O)[C@H](O)[C@H]5O)O[C@@H]4CO)O[C@@H]3CO)O[C@H]2CO)[C@H](O)[C@@H](O)[C@@H]1N[C@H]1C=C(CO)[C@@H](O[C@H]2O[C@H](CO)[C@H](O[C@H]3O[C@H](C)[C@@H](N[C@H]4C=C(CO)[C@@H](O)[C@H](O)[C@H]4O)[C@H](O)[C@H]3O)[C@H](O)[C@H]2O)[C@H](O)[C@H]1O (stereo in doubt) 6.10

---

System: bacterial glucosidase activity from bovine rumen fluid cell suspension
Assay: Rumen fluid glucosidase assay
Assay type: biochemical, bovine rumen bacteria
Settings: rumen fluid glucosidase screen, maltose substrate
attribute-measured: pIC50
// returns pIC50 (minus log10 of molar concentration), number only

Some solved entries appear below for comparison.
[[record]]
compound = "C[C@H]1O[C@H](O[C@@H]2[C@H](O)[C@H](O)[C@@H](O[C@@H]3[C@H](O)[C@@H](O)[C@@H](O[C@@H]4[C@H](O)[C@H](O)[C@@H](O[C@H]5O[C@@H](CO)[C@H](O)[C@H](O)[C@H]5O)O[C@@H]4CO)O[C@@H]3CO)O[C@H]2CO)[C@H](O)[C@@H](O)[C@@H]1N[C@H]1C=C(CO)[C@@H](O[C@H]2O[C@H](CO)[C@H](O[C@H]3O[C@H](C)[C@@H](N[C@H]4C=C(CO)[C@@H](O)[C@H](O)[C@H]4O)[C@H](O)[C@H]3O)[C@H](O)[C@H]2O)[C@H](O)[C@H]1O (stereo in doubt) [Trestatin A]"
result_number = 4.47

[[record]]
compound = "CC1OC(OC2C(CO)OC(OC3C(CO)OC(O)C(O)C3O)C(O)C2O)C(O)C(O)C1NC1C=C(CO)C(O)C(O)C1O (stereo not drawn) [Acarbose, acarbose]"
result_number = 5.97

[[record]]
compound = "CC1OC(OC2C(CO)OC(OC3C(CO)=CC(NC4C(C)OC(OC5C(CO)OC(OC6C(CO)OC(OC7C(CO)OC(OC8C(CO)OC(O)C(O)C8O)C(O)C7O)C(O)C6O)C(O)C5O)C(O)C4O)C(O)C3O)C(O)C2O)C(O)C(O)C1NC1C=C(CO)C(O)C(O)C1O (stereo not drawn) [Example 8]"
result_number = 4.88

[[record]]
compound = "C[C@H]1O[C@H](O[C@@H]2[C@H](O)[C@@H](O)[C@@H](O[C@@H]3[C@H](O)[C@@H](O)[C@@H](O[C@@H]4[C@H](O)[C@H](O)[C@@H](O[C@H]5O[C@H](CO)[C@H](O)[C@H](O)[C@H]5O)O[C@@H]4CO)O[C@@H]3CO)O[C@H]2CO)[C@@H](O)[C@@H](O)[C@@H]1N[C@@H]1C=C(CO)[C@@H](O)[C@@H](O)[C@@H]1O (stereo in doubt) [Trestatin B]"
result_number = 5.39

[[record]]
compound = "CC1OC(OC2C(CO)OC(OC3C(CO)=CC(NC4C(C)OC(OC5C(CO)OC(OC6C(CO)OC(OC7C(CO)OC(O)C(O)C7O)C(O)C6O)C(O)C5O)C(O)C4O)C(O)C3O)C(O)C2O)C(O)C(O)C1NC1C=C(CO)C(O)C(O)C1O (stereo not drawn) [Example V-1532]"
result_number = 4.18


Below: the item to evaluate.
Requested field: pIC50. Item: CC1OC(OC2C(CO)OC(OC3C(CO)OC(OC4C(CO)OC(OC5C(CO)OC(O)C(O)C5O)C(O)C4O)C(O)C3O)C(O)C2O)C(O)C(O)C1NC1C=C(CO)C(O)C(O)C1O (stereo not drawn) [Example 7] 5.20
